Reference source: the NIST ThermoML archive (doi:10.1021/je900757k)

protocol: isobaric coefficient of expansion
details: 288.15 K; 45000 kPa; Liquid; DSC
recordedMetric: isobaric coefficient of expansion

molecule	reportedMeasurement
CCCCCCCCCCC [undecane]	0.000787 1/K
CCCCCCCCCC [decane]	0.000812 1/K
CCCCCCCCC [nonane]	0.000836 1/K
CCCCCCCCCCCCC [tridecane]	0.000754 1/K
ClC(Cl)(Cl)Cl [tetrachloromethane]	0.000967 1/K
CCCCCCCCCCCC [dodecane]	0.000778 1/K

* * *

Parameter: isobaric coefficient of expansion. Scope: all listed entries.
protocol: isobaric coefficient of expansion
details: 328.15 K; 10000 kPa; Liquid; DSC

smilesString	isobaric coefficient of expansion
CCCCCCCCCCCCC	0.000903 1/K
ClC(Cl)(Cl)Cl	0.00122 1/K
CCCCCCCCCCC	0.000971 1/K
CCCCCCCCCCCCCCC	0.000873 1/K
CCCCCCCCCCCC	0.000941 1/K
CCCCCCCCCCCCCC	0.00089 1/K
CCCCCCCCC	0.00106 1/K
CCCCCCCCCC	0.00101 1/K
c1ccccc1	0.00121 1/K

* * *

protocol: isobaric coefficient of expansion
details: 278.15 K; 35000 kPa; Liquid; DSC

compound	isobaric coefficient of expansion
CCCCCCCCCC [decane]	0.000843 1/K
CCCCCCCCCCCC [dodecane]	0.000805 1/K
CCCCCCCCCCC [undecane]	0.000819 1/K
CCCCCCCCC [nonane]	0.000868 1/K
ClC(Cl)(Cl)Cl [tetrachloromethane]	0.001 1/K

* * *

protocol: isobaric coefficient of expansion
details: 318.15 K; 50000 kPa; Liquid; DSC
recordedMetric: isobaric coefficient of expansion

smilesString	recordedMetric	reportedMeasurement
CCCCCCCCCCCCCC	isobaric coefficient of expansion	0.000722 1/K
CCCCCCCCCCC	isobaric coefficient of expansion	0.000775 1/K
c1ccccc1	isobaric coefficient of expansion	0.00097 1/K
ClC(Cl)(Cl)Cl	isobaric coefficient of expansion	0.00097 1/K
CCCCCCCCCCCCCCC	isobaric coefficient of expansion	0.000718 1/K
CCCCCCCCC	isobaric coefficient of expansion	0.000825 1/K
CCCCCCCCCC	isobaric coefficient of expansion	0.000802 1/K
CCCCCCCCCCCC	isobaric coefficient of expansion	0.000754 1/K
CCCCCCCCCCCCC	isobaric coefficient of expansion	0.000734 1/K

* * *

protocol: isobaric coefficient of expansion
details: 318.15 K; 40000 kPa; Liquid; DSC
recordedMetric: isobaric coefficient of expansion

smilesString	reportedMeasurement
CCCCCCCCCCCCCC	0.000756 1/K
CCCCCCCCCC	0.000833 1/K
CCCCCCCCCCCCC	0.000763 1/K
CCCCCCCCCCCCCCC	0.000746 1/K
ClC(Cl)(Cl)Cl	0.00101 1/K
CCCCCCCCC	0.000864 1/K
CCCCCCCCCCCC	0.000787 1/K
CCCCCCCCCCC	0.000808 1/K
c1ccccc1	0.00101 1/K

* * *

protocol: isobaric coefficient of expansion
details: 308.15 K; 15000 kPa; Liquid; DSC

compound	isobaric coefficient of expansion
CCCCCCCCCCC [undecane]	0.000921 1/K
CCCCCCCCCC [decane]	0.000956 1/K
CCCCCCCCCCCCCCC [pentadecane]	0.000848 1/K
c1ccccc1 [benzene]	0.00115 1/K
CCCCCCCCCCCC [dodecane]	0.000899 1/K
CCCCCCCCCCCCC [tridecane]	0.000858 1/K
ClC(Cl)(Cl)Cl [tetrachloromethane]	0.00114 1/K
CCCCCCCCCCCCCC [tetradecane]	0.000861 1/K
CCCCCCCCC [nonane]	0.000995 1/K
